assay: Total body clearance in Sprague-Dawley rat at 1 mg/kg, iv; type: ADME, organism-based; set-up: dose 1 mg/kg, route intravenous; settings: in vivo
Bridge positions count the residues as written; N and C are the ends. Square brackets hold non-standard residues; d marks the D form. Peptide text beside a SMILES is read from it. Dab = NCC[C@H](N)C(=O)O
EXPERIMENTAL_READOUT: clearance (mL/min/kg)
Record the value in mL/min/kg, omitting the unit from your answer.

Can you share its clearance? I mean this molecule: CC(=O)N[C@H](C(=O)N[C@H](CO)C(=O)N[C@H]1CCNC(=O)[C@H]([C@@H](C)O)NC(=O)[C@H](CCN)NC(=O)[C@H](CCN)NC(=O)[C@H](CC(C)C)NC(=O)[C@@H](Cc2ccccc2)NC(=O)[C@H](CCN)NC1=O)[C@@H](C)O [SPR-741] (Ac-T[dS][Dab][Dab][dF]L[Dab][Dab]T; lactam 3-C)
7.39

* * *

assay: Drug level in Sprague-Dawley rat urine at 1 mg/kg, iv; type: ADME, organism-based; parameters: dose 1 mg/kg, route intravenous; conditions: Sprague-Dawley, urine, read-out: Drug uptake
Bridge positions count the residues as written; N and C are the ends. Square brackets hold non-standard residues; d marks the D form. Peptide text beside a SMILES is read from it. * marks the point of attachment. Octanoyl = CCCCCCCC(=O)*; Dab = NCC[C@H](N)C(=O)O; Abu = CC[C@H](N)C(=O)O
Exercise: state measured dose excreted for each of the compounds provided.
Write it as a number; the unit % goes unstated.

Give the measured dose excreted of CCCCCCCC(=O)N[C@H](C(=O)N[C@H](CO)C(=O)N[C@H]1CCNC(=O)[C@H]([C@@H](C)O)NC(=O)[C@H](CCN)NC(=O)[C@H](CCN)NC(=O)[C@H](CC(C)C)NC(=O)[C@@H](Cc2ccccc2)NC(=O)[C@H](CCN)NC1=O)[C@@H](C)O (Octanoyl-T[dS][Dab][Dab][dF]L[Dab][Dab]T; lactam 3-C) .
19.4

Look up dose excreted: CCCCCCCC(=O)N[C@H](C(=O)N[C@@H](CC)C(=O)N[C@H]1CCNC(=O)[C@H]([C@@H](C)O)NC(=O)[C@H](CCN)NC(=O)[C@H](CCN)NC(=O)[C@H](CC(C)C)NC(=O)[C@@H](Cc2ccccc2)NC(=O)[C@H](CCN)NC1=O)[C@@H](C)O (Octanoyl-T[Abu][Dab][Dab][dF]L[Dab][Dab]T; lactam 3-C)
7.16

Item under review: CC(=O)N[C@H](C(=O)N[C@H](CO)C(=O)N[C@H]1CCNC(=O)[C@H]([C@@H](C)O)NC(=O)[C@H](CCN)NC(=O)[C@H](CCN)NC(=O)[C@H](CC(C)C)NC(=O)[C@@H](Cc2ccccc2)NC(=O)[C@H](CCN)NC1=O)[C@@H](C)O [SPR-741] (Ac-T[dS][Dab][Dab][dF]L[Dab][Dab]T; lactam 3-C) . Reported dose excreted?
50.9

* * *

test system: Acinetobacter baumannii; experiment: Antimicrobial activity against Acinetobacter baumannii ATCC 19606 by Etest method in presence of 4 ug/ml NAB741; type: functional
EXPERIMENTAL_READOUT: log10 MIC (log10 of the value in µg/mL)
log10 MIC, µg/mL

What measured log10 MIC goes with CO[C@H]1/C=C/O[C@@]2(C)Oc3c(C)c(O)c4c(O)c(c(/C=N/N5CCN(C)CC5)c(O)c4c3C2=O)NC(=O)/C(C)=C\C=C\[C@H](C)[C@H](O)[C@@H](C)[C@@H](O)[C@@H](C)[C@H](OC(C)=O)[C@@H]1C [RIFAMPIN] ?
-1.03

Give its log10 MIC value. Item: CN[C@H](CC(C)C)C(=O)N[C@H]1C(=O)N[C@@H](CC(N)=O)C(=O)N[C@H]2C(=O)N[C@H]3C(=O)N[C@H](C(=O)N[C@H](C(=O)O)c4cc(O)cc(O)c4-c4cc3ccc4O)[C@H](O)c3ccc(c(Cl)c3)Oc3cc2cc(c3O[C@@H]2O[C@H](CO)[C@@H](O)[C@H](O)[C@H]2O[C@H]2C[C@](C)(N)[C@H](O)[C@H](C)O2)Oc2ccc(cc2Cl)[C@H]1O [VANCOMYCIN]
1.38

What value of measured log10 MIC is listed for CC(=O)O[C@H]1C[C@@]2(C)[C@@H](C[C@@H](O)[C@H]3[C@@]4(C)CC[C@@H](O)[C@@H](C)[C@@H]4CC[C@@]32C)/C1=C(\CCC=C(C)C)C(=O)O [FUSIDIC ACID] ?
0.78

Please give the measured log10 MIC for this compound: CC[C@H]1OC(=O)[C@H](C)[C@@H](O[C@H]2C[C@@](C)(OC)[C@@H](O)[C@H](C)O2)[C@H](C)[C@@H](O[C@@H]2O[C@H](C)C[C@H](N(C)C)[C@H]2O)[C@](C)(OC)C[C@@H](C)C(=O)[C@H](C)[C@@H](O)[C@]1(C)O [CLARITHROMYCIN]
-0.30

Need log10 MIC, item C/C(=C\C(=O)OCCCCCCCCC(=O)O)C[C@@H]1OC[C@H](C[C@@H]2O[C@H]2[C@@H](C)[C@H](C)O)[C@@H](O)[C@H]1O [MUPIROCIN]
2.71

I am curious: what log10 MIC value has been reported for CC[C@H]1OC(=O)[C@H](C)[C@@H](O[C@H]2C[C@@](C)(OC)[C@@H](O)[C@H](C)O2)[C@H](C)[C@@H](O[C@@H]2O[C@H](C)C[C@H](N(C)C)[C@H]2O)[C@](C)(O)C[C@@H](C)CN(C)[C@H](C)[C@@H](O)[C@]1(C)O [AZITHROMYCIN] ?
0.18

* * *

assay: Volume of distribution in Sprague-Dawley rat at 1 mg/kg, iv; type: ADME, organism-based; set-up: dose 1 mg/kg, route intravenous; conditions: Sprague-Dawley, in vivo
Bridge positions count the residues as written; N and C are the ends. Square brackets hold non-standard residues; d marks the D form. Peptide text beside a SMILES is read from it. Dab = NCC[C@H](N)C(=O)O
EXPERIMENTAL_READOUT: Vd (L/kg)
Reply numerically in L/kg, unit not repeated.

Entry CC(=O)N[C@H](C(=O)N[C@H](CO)C(=O)N[C@H]1CCNC(=O)[C@H]([C@@H](C)O)NC(=O)[C@H](CCN)NC(=O)[C@H](CCN)NC(=O)[C@H](CC(C)C)NC(=O)[C@@H](Cc2ccccc2)NC(=O)[C@H](CCN)NC1=O)[C@@H](C)O [SPR-741] (Ac-T[dS][Dab][Dab][dF]L[Dab][Dab]T; lactam 3-C) : reported Vd = ?
0.243

* * *

assay: Renal clearance in Sprague-Dawley rat at 1 mg/kg, iv; assay type: ADME, organism-based, Kidney; parameters: dose 1 mg/kg, route intravenous; conditions: in vivo, read-out: CL_renal
Bridge positions count the residues as written; N and C are the ends. Square brackets hold non-standard residues; d marks the D form. Peptide text beside a SMILES is read from it. Dab = NCC[C@H](N)C(=O)O
EXPERIMENTAL_READOUT: CL renal (mL/min/kg)
# unit: mL/min/kg | format: bare number

Entry CC(=O)N[C@H](C(=O)N[C@H](CO)C(=O)N[C@H]1CCNC(=O)[C@H]([C@@H](C)O)NC(=O)[C@H](CCN)NC(=O)[C@H](CCN)NC(=O)[C@H](CC(C)C)NC(=O)[C@@H](Cc2ccccc2)NC(=O)[C@H](CCN)NC1=O)[C@@H](C)O [SPR-741] (Ac-T[dS][Dab][Dab][dF]L[Dab][Dab]T; lactam 3-C) has what CL renal?
3.78

* * *

system: Acinetobacter baumannii; test: Antimicrobial activity against Acinetobacter baumannii ATCC 19606 assessed as zone of inhibition at 10 ug after 18 hrs by disk diffusion method; format: functional
Bridge positions count the residues as written; N and C are the ends. Square brackets hold non-standard residues; d marks the D form. Peptide text beside a SMILES is read from it. * marks the point of attachment. Octanoyl = CCCCCCCC(=O)*; Dab = NCC[C@H](N)C(=O)O; Abu = CC[C@H](N)C(=O)O
EXPERIMENTAL_READOUT: inhibition zone (IZ) (mm2)
Your answer is read as mm2, so omit the unit and give the number.

Returns the measured inhibition zone (IZ) for the input compound. Input: "CC(=O)N[C@H](C(=O)N[C@H](CC(N)=O)C(=O)N[C@H]1CCNC(=O)[C@H]([C@@H](C)O)NC(=O)[C@H](CCN)NC(=O)[C@H](CCN)NC(=O)[C@H](CC(C)C)NC(=O)[C@@H](Cc2ccccc2)NC(=O)[C@H](CCN)NC1=O)[C@@H](C)O"
3

Looking for the measured inhibition zone (IZ) of CCCCCCCC(=O)N[C@H](C(=O)N[C@@H](CC)C(=O)N[C@H]1CCNC(=O)[C@H]([C@@H](C)O)NC(=O)[C@H](CCN)NC(=O)[C@H](CCN)NC(=O)[C@H](CC(C)C)NC(=O)[C@@H](Cc2ccccc2)NC(=O)[C@H](CCN)NC1=O)[C@@H](C)O (Octanoyl-T[Abu][Dab][Dab][dF]L[Dab][Dab]T; lactam 3-C) , can you help?
3

Reported inhibition zone (IZ), compound CC(=O)N[C@H](C(=O)N[C@H](CO)C(=O)N[C@H]1CCNC(=O)[C@H]([C@@H](C)O)NC(=O)[C@H](CCN)NC(=O)[C@H](CCN)NC(=O)[C@H](CC(C)C)NC(=O)[C@@H](Cc2ccccc2)NC(=O)[C@H](CCN)NC1=O)[C@@H](C)O [SPR-741] (Ac-T[dS][Dab][Dab][dF]L[Dab][Dab]T; lactam 3-C) : ____
9

Entry under review: "CC(=O)N[C@H](C(=O)NCCCC(=O)N[C@H]1CCNC(=O)[C@H]([C@@H](C)O)NC(=O)[C@H](CCN)NC(=O)[C@H](CCN)NC(=O)[C@H](CC(C)C)NC(=O)[C@@H](Cc2ccccc2)NC(=O)[C@H](CCN)NC1=O)[C@@H](C)O" . Reported inhibition zone (IZ)?
3

Value lookup for inhibition zone (IZ); key = "CN[C@H](C(=O)N[C@H](CO)C(=O)N[C@H]1CCNC(=O)[C@H]([C@@H](C)O)NC(=O)[C@H](CCN)NC(=O)[C@H](CCN)NC(=O)[C@H](CC(C)C)NC(=O)[C@@H](Cc2ccccc2)NC(=O)[C@H](CCN)NC1=O)[C@@H](C)O"
3

Returns the measured inhibition zone (IZ) for the input compound. Input: CCCCCCCC(=O)N[C@H](C(=O)N[C@H](CO)C(=O)N[C@H]1CCNC(=O)[C@H]([C@@H](C)O)NC(=O)[C@H](CCN)NC(=O)[C@H](CCN)NC(=O)[C@H](CC(C)C)NC(=O)[C@@H](Cc2ccccc2)NC(=O)[C@H](CCN)NC1=O)[C@@H](C)O (Octanoyl-T[dS][Dab][Dab][dF]L[Dab][Dab]T; lactam 3-C)
161

Recorded inhibition zone (IZ) of CC(C)C[C@@H]1NC(=O)[C@@H](Cc2ccccc2)NC(=O)[C@H](CCN)NC(=O)[C@@H](NC(=O)[C@H](CCN)NC(=O)[C@@H](N)[C@@H](C)O)CCNC(=O)[C@H]([C@@H](C)O)NC(=O)[C@H](CCN)NC(=O)[C@H](CCN)NC1=O [POLYMYXIN B NONAPEPTIDE] (H-T[Dab][Dab][Dab][dF]L[Dab][Dab]T; lactam 3-C) , please.
3

// data source = ChEMBL document CHEMBL1629695
